assay-target: AR (Homo sapiens)
Construct: endogenous in cells; host or cells: VCaP cells
method-summary: VCAP AR Degradation Assay
Type: cell-based
protocol-conditions: class symbols *, **
recorded-metric: Y (AR degradation efficiency, % of DMSO control)

molecule	reported-value
CCc1cc(N2C(=S)N(c3cnc(C#N)c(C(F)(F)F)c3)C(=O)C2(C)C)ccc1OCCN1CCN(CC(=O)Nc2cc(Cl)cc(NC3CCC(=O)NC3=O)c2)[C@H](C)C1 (some centres unmarked) [Example 144]	* (0<Y<=25%)
C[C@@H]1CN(CCOc2ccc(N3C(=S)N(c4cnc(C#N)c(C(F)(F)F)c4)C(=O)C34CCC4)cc2C2CC2)C[C@H](C)N1CC(=O)Nc1cc(C#N)cc(NC2CCC(=O)NC2=O)c1 (some centres unmarked)	* (0<Y<=25%)
CC(F)(F)c1cc(N2C(=S)N(c3cnc(C#N)c(C(F)(F)F)c3)C(=O)C2(C)C)ccc1OCCN1CCN(CC(=O)Nc2cccc(NC3CCC(=O)NC3=O)c2)CC1 (centres unmarked)	* (0<Y<=25%)

---

assay-target: AR (Homo sapiens, UniProt P10275)
Construct: endogenous in cells; host or cells: VCaP cells
Sequence (P10275 whole entry): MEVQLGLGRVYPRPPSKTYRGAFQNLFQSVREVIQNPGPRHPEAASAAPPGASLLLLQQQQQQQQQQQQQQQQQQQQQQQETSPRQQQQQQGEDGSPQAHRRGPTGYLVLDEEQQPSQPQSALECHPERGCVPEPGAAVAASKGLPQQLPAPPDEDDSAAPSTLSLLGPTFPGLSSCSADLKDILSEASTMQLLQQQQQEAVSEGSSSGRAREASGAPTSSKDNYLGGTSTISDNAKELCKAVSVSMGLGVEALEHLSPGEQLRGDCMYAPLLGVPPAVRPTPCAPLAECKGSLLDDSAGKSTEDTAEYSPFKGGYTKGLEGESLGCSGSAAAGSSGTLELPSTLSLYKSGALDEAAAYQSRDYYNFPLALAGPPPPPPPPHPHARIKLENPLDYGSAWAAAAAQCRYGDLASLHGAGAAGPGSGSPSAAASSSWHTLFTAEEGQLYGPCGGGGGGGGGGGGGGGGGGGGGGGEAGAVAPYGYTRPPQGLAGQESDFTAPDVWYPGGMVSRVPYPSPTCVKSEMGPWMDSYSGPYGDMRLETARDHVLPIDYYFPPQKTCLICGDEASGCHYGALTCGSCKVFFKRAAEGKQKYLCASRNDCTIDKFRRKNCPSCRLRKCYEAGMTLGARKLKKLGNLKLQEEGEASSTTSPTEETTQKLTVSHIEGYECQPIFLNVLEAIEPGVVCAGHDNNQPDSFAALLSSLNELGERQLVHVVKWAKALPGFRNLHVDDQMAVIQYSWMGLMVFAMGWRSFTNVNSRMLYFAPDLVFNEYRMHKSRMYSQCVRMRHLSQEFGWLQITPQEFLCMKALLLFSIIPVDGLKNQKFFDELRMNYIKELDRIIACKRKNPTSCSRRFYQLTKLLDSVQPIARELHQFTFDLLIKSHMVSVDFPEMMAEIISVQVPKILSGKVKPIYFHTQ
method-summary: VCAP AR Degradation Assay
Type: cell-based
protocol-conditions: class symbols *, **
recorded-metric: Y (AR degradation efficiency, % of DMSO control)

molecule	reported-value
CC1(C)C(=O)N(c2cnc(C#N)c(C(F)(F)F)c2)C(=S)N1c1ccc(OCCN2CCN(CC(=O)Nc3cc(Cl)cc(NC4CCC(=O)NC4=O)c3)CC2)c(C2CC2)c1 (stereo not drawn)	* (0<Y<=25%)
CCc1cc(N2C(=S)N(c3cnc(C#N)c(C(F)(F)F)c3)C(=O)C2(C)C)ccc1OCCN1CCN([C@@H](C)C(=O)Nc2cc(F)cc(NC3CCC(=O)NC3=O)c2)CC1 (stereo partly drawn)	* (0<Y<=25%)
CC1(C)C(=O)N(c2cnc(C#N)c(C(F)(F)F)c2)C(=S)N1c1ccc(OCCN2CCN(CC(=O)Nc3cc(NC4CCC(=O)NC4=O)ccc3F)CC2)c(CC(F)F)c1 (stereo not drawn)	* (0<Y<=25%)

---

assay-target: AR (Homo sapiens)
Construct: endogenous in cells; host or cells: VCaP cells
method-summary: VCAP AR Degradation Assay
Type: cell-based
protocol-conditions: class symbols A-C, read-out: DC50
Where a name gives a salt, the structure may show the parent alone.
What DC50 was measured for each of the following?

Here is how some molecules turned out for DC50.
molecule	assay-target	recorded-metric	reported-value
C[C@@H]1CN(CCOc2ccc(N3C(=S)N(c4ccc(C#N)c(C(F)(F)F)c4)C(=O)C3(C)C)cc2C2CC2)C[C@H](C)N1CC(=O)Nc1cccc(N[C@@H]2CCC(=O)NC2=O)c1	AR (Homo sapiens)	DC50	< 100 nM
CCc1cc(N2C(=S)N(c3ccc(C#N)c(C(F)(F)F)c3)C(=O)C2(C)C)ccc1OCCN1CCN(C2(C(=O)Nc3cccc(NC4CCC(=O)NC4=O)c3)CC2)CC1 (centres unmarked)	AR (Homo sapiens)	DC50	< 100 nM

Quick one: give me DC50 for each item below, same order please.
1. CC1(C)C(=O)N(c2ccc(C#N)c(C(F)(F)F)c2)C(=S)N1c1ccc(OCCN2CCN(CC(=O)Nc3cc(Cl)cc(NC4CCC(=O)NC4=O)c3)CC2)c(CC(F)F)c1 (centres unmarked)
2. CCc1cc(N2C(=S)N(c3ccc(C#N)c(C(F)(F)F)c3)C(=O)C2(C)C)ccc1OCCN1CCN(CC(=O)Nc2cccc(NC3CCC(=O)NC3=O)c2)[C@H](C)C1 (some centres unmarked)

["< 100 nM", "< 100 nM"]

List DC50 for every entry below, keeping the order given.
1. CCc1cc(N2C(=S)N(c3cnc(C#N)c(C(F)(F)F)c3)C(=O)C2(C)C)ccc1OCCN1C[C@@H]2CC[C@H]1CN2CC(=O)Nc1cc(Cl)cc(NC2CCC(=O)NC2=O)c1 (some centres unmarked)
2. CCc1cc(N2C(=S)N(c3cnc(C#N)c(C(F)(F)F)c3)C(=O)C23CCC3)ccc1OCCN1CCN(CC(=O)Nc2cc(F)cc(NC3CCC(=O)NC3=O)c2)[C@H](C)C1 (some centres unmarked)
3. CC(O)c1cc(N2C(=S)N(c3cnc(C#N)c(C(F)(F)F)c3)C(=O)C2(C)C)ccc1OCCN1CCN(CC(=O)Nc2cc(Cl)cc(NC3CCC(=O)NC3=O)c2)CC1 (centres unmarked)
4. CC1(C)C(=O)N(c2ccc(C#N)c(C(F)(F)F)c2)C(=S)N1c1ccc(OCCN2CC3CCC(C2)N3CC(=O)Nc2cccc(NC3CCC(=O)NC3=O)c2)c(C2CC2)c1 (centres unmarked)
5. CC(C)c1cc(N2C(=S)N(c3ccc(C#N)c(C(F)(F)F)c3)C(=O)C23CCC3)cnc1OCCN1C[C@@H](C)N(CC(=O)Nc2cc(C#N)cc(NC3CCC(=O)NC3=O)c2)C[C@H]1C (some centres unmarked)
6. CCc1cc(N2C(=S)N(c3cnc(C#N)c(C(F)(F)F)c3)C(=O)C2(C)C)ccc1OCCN1CCN(CC(=O)Nc2cc(Cl)cc(NC3CCC(=O)NC3=O)c2)[C@H](C)C1 (some centres unmarked) [Example 74]
7. CC(C)c1cc(N2C(=S)N(c3cnc(C#N)c(C(F)(F)F)c3)C(=O)C23CCC3)ccc1OCCN1C[C@@H](C)N(CC(=O)Nc2cc(Cl)cc(NC3CCC(=O)NC3=O)c2)[C@@H](C)C1 (some centres unmarked)
8. CCc1cc(N2C(=S)N(c3ccc(C#N)c(C(F)(F)F)c3)C(=O)C2(C)C)cnc1OCCN1C[C@@H](C)N(CC(=O)Nc2cccc(NC3CCC(=O)NC3=O)c2)[C@@H](C)C1 (some centres unmarked)

["100 to 500 nM", "< 100 nM", "100 to 500 nM", "500 to 1000 nM", "100 to 500 nM", "< 100 nM", "< 100 nM", "< 100 nM"]

Lab note: each molecule below needs its DC50 filled in.
1. CC(C)c1cc(N2C(=S)N(c3ccc(C#N)c(Cl)c3)C(=O)C2(C)C)ccc1OCCN1C[C@@H](C)N(CC(=O)Nc2cc(F)cc(NC3CCC(=O)NC3=O)c2)[C@@H](C)C1 (some centres unmarked)
2. CCc1cc(N2C(=S)N(c3ccc(C#N)c(C(F)(F)F)c3)C(=O)C2(C)C)ccc1CCCN1C[C@@H](C)N(CC(=O)Nc2cccc(NC3CCC(=O)NC3=O)c2)[C@@H](C)C1 (some centres unmarked)
3. CC(C)c1cc(N2C(=S)N(c3ccc(C#N)c(C(F)(F)F)c3)C(=O)C2(C)C)ccc1OCCN1CCN(C2(C(=O)Nc3cccc(NC4CCC(=O)NC4=O)c3)CC2)CC1 (centres unmarked)
4. N#Cc1ccc(N2C(=O)C3(CCC3)N(c3ccc(OCCN4CCN(CC(=O)Nc5cccc(NC6CCC(=O)NC6=O)c5)CC4)c(F)c3)C2=S)cc1C(F)(F)F (centres unmarked) [Example 8, hydrochloride]
5. C[C@@H]1CN(CCOc2ccc(N3C(=S)N(c4ccc(C#N)c(C(F)(F)F)c4)C(=O)C3(C)C)cc2C2CCC2)C[C@H](C)N1CC(=O)Nc1cccc(NC2CCC(=O)NC2=O)c1 (some centres unmarked)

< 100 nM
< 100 nM
100 to 500 nM
< 100 nM
< 100 nM
